Target: gp120 of viral strain VI820 (HIV, strain VI820)
Test: cell-based or functional assay
*1 amine or outer side, *2 acyl side, *3 side chain or, on linkers, in order; H or OH if unused. [ ]: non-standard residue; d: D form. U1 = 4-cyclohexylmethoxy-L-phenylalanine, O=C([C@H](Cc1ccc(OCC2CCCCC2)cc1)N[*:1])[*:2]; Bip = N[C@@H](Cc1ccc(-c2ccccc2)cc1)C(=O)O; Tpa = thiopropionic acid
Readings of EC50 (antiviral activity, TZM-bl cells, luciferase) for the listed binders
REPORTED METRIC: EC50 (antiviral activity, TZM-bl cells, luciferase) (nM)

>  <BINDER>
mCD4.2-PS1 (not fully specified; N-terminal gamma-aminobutyric acid (gammaAbu) acylated with 3-thiopropionyl (from SATP); all six Tyr are sulfotyrosine (YSO3); N-terminal Tpa; D-proline at position 21; U1 (4-cyclohexylmethoxy-L-phenylalanine) at position 23; C-terminal amide; Lys5 N-epsilon carries the PEO2-maleimide linker bound to the thiol of the PS1 chain) peptide 1: NLHKCQLRCSSLGLLGRCAPTFCACV peptide 2: SYDYSYDYSYDYS

>  <VAL>
0.031

$$$$
>  <BINDER>
mCD4.1-PS1 (N-terminal gamma-aminobutyric acid (gammaAbu) acylated with 3-thiopropionyl (from SATP); all six Tyr are sulfotyrosine (YSO3); N-terminal Tpa (thiopropionic acid); Bip at position 23; C-terminal …; Lys5 N-epsilon carries the PEO2-maleimide linker bound to the thiol of the PS1 chain) peptide 1: NLHKCQLRCSSLGLLGRCAGSFCACV peptide 2: SYDYSYDYSYDYS

>  <VAL>
25

$$$$
>  <BINDER>
Tpa-NLHKCQLRCSSLGLLGRCA[dP]T[U1]CACV-NH2 (disulfide (positions not given here)) [mCD4.2]

>  <VAL>
6.1

$$$$
>  <BINDER>
Tpa-NLHKCQLRCRSLGLLGRCA[dP]T[U1]CACV-NH2 (disulfide (positions not given here)) [mCD4.3]

>  <VAL>
4.2

$$$$
>  <BINDER>
Tpa-NLHKCQLRCSSLGLLGRCAGS[Bip]CACV-NH2 (disulfide (positions not given here); also: three disulphide bridges, pairing not given here) [mCD4.1]

>  <VAL>
1690

$$$$
